Property: pIC50; scope: individual compounds
biological target: ERK5 (Homo sapiens, UniProt Q13164); experiment: Z'-LYTE Kinase Assay, Ser/Thr 4 peptide; format: biochemical; conditions: read-out: IC50 against ERK5 (Z'-LYTE kinase assay)
Sequence (Q13164 2-816): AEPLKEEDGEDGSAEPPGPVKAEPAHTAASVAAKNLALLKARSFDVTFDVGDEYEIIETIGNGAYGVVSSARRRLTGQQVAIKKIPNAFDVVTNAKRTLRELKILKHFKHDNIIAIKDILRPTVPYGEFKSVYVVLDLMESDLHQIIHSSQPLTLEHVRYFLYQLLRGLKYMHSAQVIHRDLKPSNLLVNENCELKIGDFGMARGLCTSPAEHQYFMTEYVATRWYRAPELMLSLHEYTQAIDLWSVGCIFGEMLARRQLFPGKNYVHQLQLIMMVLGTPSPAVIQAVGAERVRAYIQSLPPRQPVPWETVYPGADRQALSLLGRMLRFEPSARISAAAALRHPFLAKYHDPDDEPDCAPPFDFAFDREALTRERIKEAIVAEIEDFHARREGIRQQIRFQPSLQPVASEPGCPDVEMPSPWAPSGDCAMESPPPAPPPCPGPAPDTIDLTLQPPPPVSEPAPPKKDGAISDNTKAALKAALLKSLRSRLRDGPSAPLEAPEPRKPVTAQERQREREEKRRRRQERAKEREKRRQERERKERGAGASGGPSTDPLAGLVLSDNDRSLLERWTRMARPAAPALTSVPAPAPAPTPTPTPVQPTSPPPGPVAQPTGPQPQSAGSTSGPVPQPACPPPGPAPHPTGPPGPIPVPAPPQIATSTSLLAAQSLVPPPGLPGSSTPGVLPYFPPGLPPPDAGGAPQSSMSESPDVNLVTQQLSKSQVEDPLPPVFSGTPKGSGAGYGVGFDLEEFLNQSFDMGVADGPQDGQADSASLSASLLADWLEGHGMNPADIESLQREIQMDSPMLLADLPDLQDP
Reminder that pIC50 means the negative base-10 logarithm of the concentration expressed in mol/L.

compound_structure=Cc1cc2c(cc1C)[n+](Cc1cc(OCCC(C)C)c3ccccc3c1OCCC(C)C)cn2CCC(C)C.[Br-] assay_target="ERK5 (Homo sapiens, UniProt Q13164)" recorded_result=5.05

**Query** Fill blank: measured pIC50 of the compound CC(C)CCOc1cc(C[n+]2c(C(C)C)n(CCC(C)C)c3ccccc32)c(OCCC(C)C)c2ccccc12.[Br-] is ____.
**Result** 5.29
